Quick list: viability, T/C per entry.
system: KRAS patient-derived spheroids with HUVEC/MSC, viability; test: Anticancer human tumor 519858-162-T-J1-PDC patient-derived colon adenocarcinoma cell line growth inhibition [KRAS2]; settings: second compound 3.16 µM; first compound 10 µM; stronger effect = lower value;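 note: compound exposure lasted seven days before readout; 100% = DMSO vehicle control viability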
Response body: numeric value in %, unit text excluded.

CC(C)NCC(C(=O)N1CCN(c2ncnc3c2C(C)CC3O)CC1)c1ccc(Cl)cc1 (stereo unspecified) + COc1cc2nc(C)nc(NC(C)c3cc(N)cc(C(F)(F)F)c3)c2cc1OC1CCOC1: 64.1
O=C(c1cc(Cc2n[nH]c(=O)c3ccccc23)ccc1F)N1CCN(C(=O)C2CC2)CC1 + CNCc1ccccc1-c1csc(C(C)Nc2nc(C)nc3cc(OC)c(OC)cc23)c1: 64.6
O=C(c1cc(Cc2n[nH]c(=O)c3ccccc23)ccc1F)N1CCN(C(=O)C2CC2)CC1 + C=CC(=O)N1CCN(c2nc(OCC3CCCN3C)nc3c2CCN(c2cccc4cccc(C)c24)C3)CC1CC#N: 80.2
COC(=O)c1ccc2c(C(=Nc3ccc(N(C)C(=O)CN4CCN(C)CC4)cc3)c3ccccc3)c(O)[nH]c2c1 + C=CC(=O)N1CCN(c2nc(OCC3CCCN3C)nc3c2CCN(c2cccc4cccc(C)c24)C3)CC1CC#N: 0.39
CC(C)NCC(C(=O)N1CCN(c2ncnc3c2C(C)CC3O)CC1)c1ccc(Cl)cc1 (stereo unspecified) + CNCc1ccccc1-c1csc(C(C)Nc2nc(C)nc3cc(OC)c(OC)cc23)c1: 43.8

Query CCNC(=O)CC1N=C(c2ccc(Cl)cc2)c2cc(OC)ccc2-n2c(C)nnc21 (stereo unspecified) + CNCc1ccccc1-c1csc(C(C)Nc2nc(C)nc3cc(OC)c(OC)cc23)c1 on KRAS patient-derived spheroids with HUVEC/MSC, viability; viability, T/C returned: 9.53

Query Cn1nccc1Nc1nccc(-c2cc3c(s2)C(C)(C)N(CCN2CCOCC2)C3=O)n1 + COc1cc2nc(C)nc(NC(C)c3cc(N)cc(C(F)(F)F)c3)c2cc1OC1CCOC1 on KRAS patient-derived spheroids with HUVEC/MSC, viability; viability, T/C returned: 23

Query CC1OCC2(CCN(c3cnc(Sc4ccnc(N)c4Cl)c(N)n3)CC2)C1N (stereo unspecified) + C=CC(=O)N1CCN(c2nc(=O)n(-c3c(C)ccnc3C(C)C)c3nc(-c4c(O)cccc4F)c(F)cc23)C(C)C1 on KRAS patient-derived spheroids with HUVEC/MSC, viability; viability, T/C returned: 65.4

Query O=C(c1cc(Cc2n[nH]c(=O)c3ccccc23)ccc1F)N1CCN(C(=O)C2CC2)CC1 + C=CC(=O)N1CCN(c2nc(=O)n(-c3c(C)ccnc3C(C)C)c3nc(-c4c(O)cccc4F)c(F)cc23)C(C)C1 on KRAS patient-derived spheroids with HUVEC/MSC, viability; viability, T/C returned: 120

Query CC1OCC2(CCN(c3cnc(Sc4ccnc(N)c4Cl)c(N)n3)CC2)C1N (stereo unspecified) + C=CC(=O)N1CCN(c2nc(OCC3CCCN3C)nc3c2CCN(c2cccc4cccc(C)c24)C3)CC1CC#N on KRAS patient-derived spheroids with HUVEC/MSC, viability; viability, T/C returned: 30.1

Query CC1(C)CCC(CN2CCN(c3ccc(C(=O)NS(=O)(=O)c4ccc(NCC5CCOCC5)c([N+](=O)[O-])c4)c(Oc4cnc5[nH]ccc5c4)c3)CC2)=C(c2ccc(Cl)cc2)C1 + COc1cc2nc(C)nc(NC(C)c3cc(N)cc(C(F)(F)F)c3)c2cc1OC1CCOC1 on KRAS patient-derived spheroids with HUVEC/MSC, viability; viability, T/C returned: 35.8
